# system.under.test: D(4) dopamine receptor (Homo sapiens, UniProt P21917)
# Sequence (P21917 whole entry): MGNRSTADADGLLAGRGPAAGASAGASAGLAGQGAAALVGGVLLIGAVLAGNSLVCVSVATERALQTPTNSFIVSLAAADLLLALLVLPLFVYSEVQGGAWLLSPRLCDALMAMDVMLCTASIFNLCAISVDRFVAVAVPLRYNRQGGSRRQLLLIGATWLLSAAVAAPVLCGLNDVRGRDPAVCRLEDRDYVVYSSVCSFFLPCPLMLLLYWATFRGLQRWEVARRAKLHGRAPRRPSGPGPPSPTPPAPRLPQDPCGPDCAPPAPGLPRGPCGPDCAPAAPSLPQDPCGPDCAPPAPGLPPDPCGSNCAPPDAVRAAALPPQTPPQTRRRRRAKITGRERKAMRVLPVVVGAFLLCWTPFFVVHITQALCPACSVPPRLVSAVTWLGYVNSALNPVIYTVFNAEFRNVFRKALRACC
# test.description: Displacement of [3H]spiperone from human dopamine D4 receptor expressed in cells
Can you tell me IC50 for the items I'm about to list?
The reply should contain only the number, in µM.

[Q] Which measured IC50 value corresponds to `CN1CCN(c2ccc3c(c2)N(S(=O)(=O)c2ccc4ccccc4c2)CCC3=O)CC1` ?
[A] 3.61

[Q] Which measured IC50 value corresponds to CC1CC(=O)c2c(N3CCN(C)CC3)cccc2N1S(=O)(=O)c1ccc2ccccc2c1 (stereo unspecified) ?
[A] 5.52

[Q] Which measured IC50 value corresponds to `CN1CCN(c2cccc3c2C(=O)CCN3S(=O)(=O)c2ccc3ccccc3c2)CC1` ?
[A] 1.79

###

# test.description: Lipophilicity, log D of the compound
# Format: physicochemical
# details: octanol/water
parameter.measured: logD

[Q] Which measured logD value corresponds to CC1CC(=O)c2ccc(N3CCN(C)CC3)cc2N1S(=O)(=O)c1ccc2ccccc2c1 (stereo not drawn) ?
[A] 3.2

[Q] Which measured logD value corresponds to `COc1ccc(NS(=O)(=O)c2sc3ccc(Cl)cc3c2C)cc1N1CCN(C)CC1` ?
[A] 2.99

[Q] Which measured logD value corresponds to CC1CC(=O)c2c(N3CCN(C)CC3)cccc2N1S(=O)(=O)c1ccc2ccccc2c1 (stereo not drawn) ?
[A] 3.6

###

Can you tell me pIC50 for the items I'm about to list?
# system.under.test: 5-hydroxytryptamine receptor 2A (Homo sapiens)
# Sequence (P28223 whole entry): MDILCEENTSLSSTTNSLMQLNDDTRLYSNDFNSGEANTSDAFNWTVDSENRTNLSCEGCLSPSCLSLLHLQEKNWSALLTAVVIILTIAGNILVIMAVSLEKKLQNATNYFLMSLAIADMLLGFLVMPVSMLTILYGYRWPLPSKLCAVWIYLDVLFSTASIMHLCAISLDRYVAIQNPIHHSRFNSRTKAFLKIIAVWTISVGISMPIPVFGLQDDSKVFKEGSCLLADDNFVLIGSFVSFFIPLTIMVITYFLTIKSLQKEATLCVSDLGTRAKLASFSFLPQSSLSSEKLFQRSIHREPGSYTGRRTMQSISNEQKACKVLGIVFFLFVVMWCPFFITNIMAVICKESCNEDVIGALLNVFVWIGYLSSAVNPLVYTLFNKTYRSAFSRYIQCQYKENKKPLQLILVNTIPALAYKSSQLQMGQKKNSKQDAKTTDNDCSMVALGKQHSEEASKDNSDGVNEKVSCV
# test.description: Displacement of [3H]ketanserin from human 5HT2A receptor expressed in cells
Scale note: pIC50 = -log10(concentration in M).

[Q] GET /values?readout=pIC50&system=5-hydroxytryptamine receptor 2A (Homo sapiens)&item= CCC1CC(=O)c2c(N3CCN(C)CC3)cccc2N1S(=O)(=O)c1ccc2ccccc2c1 (stereo unspecified)
[A] 6.34

[Q] GET /values?readout=pIC50&system=5-hydroxytryptamine receptor 2A (Homo sapiens)&item= Cc1cc(N2CCN(C)CC2)c2c(c1)N(S(=O)(=O)c1ccc3ccccc3c1)C(C)CC2=O (stereo unspecified)
[A] 6.15

[Q] GET /values?readout=pIC50&system=5-hydroxytryptamine receptor 2A (Homo sapiens)&item= CC1CC(=O)c2ccc(N3CCN(C)CC3)cc2N1S(=O)(=O)c1ccc2ccccc2c1 (stereo unspecified)
[A] 5.84

[Q] GET /values?readout=pIC50&system=5-hydroxytryptamine receptor 2A (Homo sapiens)&item= `CN1CCN(c2cccc3c2C(=O)CCN3S(=O)(=O)c2ccc3ccccc3c2)CC1`
[A] 6.12

[Q] GET /values?readout=pIC50&system=5-hydroxytryptamine receptor 2A (Homo sapiens)&item= `CN1CCN(c2ccc3c(c2)N(S(=O)(=O)c2ccc4ccccc4c2)CCC3=O)CC1`
[A] 6.44

[Q] GET /values?readout=pIC50&system=5-hydroxytryptamine receptor 2A (Homo sapiens)&item= CC1CC(=O)c2c(N3CCN(C)CC3)cccc2N1S(=O)(=O)c1ccc2ccccc2c1 (stereo unspecified)
[A] 7.32

###

# system.under.test: 5-hydroxytryptamine receptor 1A (Homo sapiens, UniProt P08908)
# Sequence (P08908 whole entry): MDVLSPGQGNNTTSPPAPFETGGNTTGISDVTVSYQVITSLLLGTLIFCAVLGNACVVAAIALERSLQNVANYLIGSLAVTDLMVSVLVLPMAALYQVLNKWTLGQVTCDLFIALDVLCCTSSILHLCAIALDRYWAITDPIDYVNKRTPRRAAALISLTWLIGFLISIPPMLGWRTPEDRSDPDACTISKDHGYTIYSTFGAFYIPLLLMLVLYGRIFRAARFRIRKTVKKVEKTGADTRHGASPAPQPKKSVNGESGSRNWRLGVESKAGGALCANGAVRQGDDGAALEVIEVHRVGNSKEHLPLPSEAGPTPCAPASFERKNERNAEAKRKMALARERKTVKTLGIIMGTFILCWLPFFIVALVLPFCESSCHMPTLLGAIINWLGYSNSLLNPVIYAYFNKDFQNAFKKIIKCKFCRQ
# test.description: Displacement of [3H]8-OH-DPAT from human 5HT1A receptor expressed in cells
pIC50: −log10 of the molar value.
Threshold check on pIC50: at or above 6 gives fulfilled, strictly below gives not fulfilled.

[Q] For this compound, is measured pIC50 6 or higher? `CN1CCN(c2cccc3c2C(=O)CCN3S(=O)(=O)c2ccc3ccccc3c2)CC1`
[A] fulfilled

[Q] For this compound, is measured pIC50 6 or higher? CC1CC(=O)c2ccc(N3CCN(C)CC3)cc2N1S(=O)(=O)c1ccc2ccccc2c1 (stereo unspecified)
[A] not fulfilled
